Assay: A673 Ewing sarcoma viability loss – cell-based, CellTiter-Glo luminescence, cherry-pick retest, confirmation (AID 720587)
Settings: A673 Ewing sarcoma viability, CellTiter-Glo ATP luminescence, 72 h; at 26 µM (top of the series)
Measured activity change, negative = cytotoxicity values are reported for all entries that follow.
// return numeric value only (unit: %, not printed)

Known activity change, negative = cytotoxicity results, listed for orientation:
{"COMPOUND": "C/C=C/c1ccc(C2[C@@H]3CN(C(=O)Cc4ccccc4)C[C@H]2N3)cc1 (stereo not given in full)", "activity change, negative = cytotoxicity [%]": -1.54}
{"COMPOUND": "CCNC(=O)c1cccc(S(=O)(=O)N2CCCCCC2)c1", "activity change, negative = cytotoxicity [%]": 0.705}
{"COMPOUND": "CC(NC(=O)c1ccco1)c1nc(-c2ccc(C(C)(C)C)cc2)no1 (stereo not given)", "activity change, negative = cytotoxicity [%]": -2.68}
{"COMPOUND": "COC(=O)c1c(C)[nH]c(/C=N/Nc2ccccc2)c1C", "activity change, negative = cytotoxicity [%]": 5.78}
{"COMPOUND": "COCCCNc1ccn2nc(-c3ccccc3)cc2n1", "activity change, negative = cytotoxicity [%]": 0.68}

# context switch: different compound, same activity change, negative = cytotoxicity
### Prompt Requested field: activity change, negative = cytotoxicity. Item: CCCc1nc2ccc(NC(=O)c3cccs3)cc2c(=O)n1Cc1ccccc1Cl
### Response 3.49

---

Measured activity change, negative = cytotoxicity values are reported for all entries that follow.
Test: A673 Ewing sarcoma viability loss – cell-based, CellTiter-Glo luminescence, cherry-pick retest, confirmation (AID 720587)
Conditions: A673 Ewing sarcoma viability, CellTiter-Glo ATP luminescence, 72 h; at 26 µM (top of the series)
// return numeric value only (unit: %, not printed)

### Prompt Requested field: activity change, negative = cytotoxicity. Item: CC(=O)Nc1ccc(S(=O)(=O)Nc2ccc(N3CCCCC3)cc2)cc1
### Response -16.3

---

Assay: A673 Ewing sarcoma viability loss – cell-based, CellTiter-Glo luminescence, cherry-pick retest, confirmation (AID 720587)
Settings: A673 Ewing sarcoma viability, CellTiter-Glo ATP luminescence, 72 h; at 26 µM (top of the series)
MEASURED_ATTRIBUTE: activity change, negative = cytotoxicity (%)
// return numeric value only (unit: %, not printed)

Known activity change, negative = cytotoxicity results, listed for orientation:
{"MOLECULE": "Cc1ccc(NC(=O)COC(=O)c2ccc3c(c2)OCO3)cc1S(=O)(=O)N1CCCCC1", "MEASURED_ATTRIBUTE": "activity change, negative = cytotoxicity", "UNIT_INFO": "%", "REPORTED_MEASUREMENT": -4.65}
{"MOLECULE": "CC(C)CC(NC(=O)c1cccs1)c1nnc(SCc2ccc(Cl)c(Cl)c2)n1C (stereo not given)", "MEASURED_ATTRIBUTE": "activity change, negative = cytotoxicity", "UNIT_INFO": "%", "REPORTED_MEASUREMENT": 6.55}
{"MOLECULE": "COC(=O)C[C@@H]1CC[C@@H]2[C@@H](COc3ccc(NC(=O)Cc4cccs4)cc3C(=O)N2C)O1", "MEASURED_ATTRIBUTE": "activity change, negative = cytotoxicity", "UNIT_INFO": "%", "REPORTED_MEASUREMENT": -23.4}
{"MOLECULE": "COc1ccc(/C=C2\\SC(=O)N(CCCC(=O)Nc3cc(Cl)ccc3C(=O)O)C2=O)cc1", "MEASURED_ATTRIBUTE": "activity change, negative = cytotoxicity", "UNIT_INFO": "%", "REPORTED_MEASUREMENT": 1.72}

# context switch: different molecule, same activity change, negative = cytotoxicity
### Prompt Requested field: activity change, negative = cytotoxicity. Item: Cc1ccc(/C=C/C(=O)N2CCN(S(=O)(=O)c3c(C)c(C)cc(C)c3C)CC2)o1
### Response 4.87

---

Measured activity change, negative = cytotoxicity values are reported for all entries that follow.
Assay: A673 Ewing sarcoma viability loss – cell-based, CellTiter-Glo luminescence, cherry-pick retest, confirmation (AID 720587)
Conditions: A673 Ewing sarcoma viability, CellTiter-Glo ATP luminescence, 72 h; at 26 µM (top of the series)
// return numeric value only (unit: %, not printed)

Known activity change, negative = cytotoxicity results, listed for orientation:
{"COMPOUND": "C/C=C/c1ccc([C@H]2[C@@H](CO)N3C(=O)CN(S(=O)(=O)c4cccc(F)c4)C[C@@H]23)cc1", "activity change, negative = cytotoxicity [%]": -5.5}
{"COMPOUND": "c1cncc(-c2ccc([C@@H]3[C@H]4CNC[C@@H]3N4CC3CCOCC3)cc2)c1", "activity change, negative = cytotoxicity [%]": 9.2}
{"COMPOUND": "CC(=O)c1ccc(N=C2C(=O)Nc3ccccc32)cc1", "activity change, negative = cytotoxicity [%]": -4.29}
{"COMPOUND": "COc1ccc(Cl)cc1S(=O)(=O)Nc1ccc2c(c1)n(C)c(=O)n2C", "activity change, negative = cytotoxicity [%]": -1.58}
{"COMPOUND": "CCOc1ccc(-c2noc(CCC(=O)O)n2)cc1", "activity change, negative = cytotoxicity [%]": 6.68}

### Prompt Requested field: activity change, negative = cytotoxicity. Item: O=C(CN1C(=O)C(=O)c2ccccc21)c1ccc(Cl)cc1
### Response -6.17

### Prompt Query O=C(Nc1nc(-c2ccc(F)c(F)c2)cs1)c1ccc(OCC2CCCO2)cc1 (stereo unspecified) next
### Response 5.7

### Prompt Query COc1ccc(-c2sc3ccccc3c2-c2ccc(OCCN3CCCCC3)cc2)cc1 next
### Response -3.21

### Prompt Query CN(C)Cc1c(O)ccc2c1O/C(=C\C=C\c1ccccc1)C2=O next
### Response -7.01

### Prompt Query CC(C)(C)c1ccc(/C=N/Nc2ccc(C(=O)O)cc2)cc1 next
### Response -3.68

### Prompt Query CC(=O)c1ccc(N(C(=O)Cn2nnc3ccccc32)C(C(=O)NCc2ccccc2)c2ccccn2)cc1 (stereo unspecified) next
### Response 3.66

### Prompt Query CN(C(=O)COC(=O)c1cc(-c2ccccc2Cl)nc2ccccc12)C1CCS(=O)(=O)C1 (stereo unspecified) next
### Response -1.76

### Prompt Query COc1ccccc1-c1cn(CC[C@H]2CC[C@@H](NC(=O)C3CCCC3)[C@@H](CO)O2)nn1 next
### Response 6.63

### Prompt Query COc1ccc(CNc2ncc(-c3ccc(F)cc3)n2C)c2ccccc12 next
### Response 2.68

### Prompt Query O=C1NC(=O)N(CCc2ccc(F)cc2)C(=O)/C1=C/C=C/c1ccccc1 next
### Response 0.109

### Prompt Query C[C@@H]1CN([C@H](C)CO)S(=O)(=O)c2ccc(C#CC3CC3)cc2O[C@@H]1CN(C)Cc1ccccc1F next
### Response -19.6

### Prompt Query CC(C)(C)c1ccc(Oc2ccc(NC(=O)C3CC=CCC3C(=O)O)cc2)cc1 (stereo unspecified) next
### Response 6.05

### Prompt Query COc1ccc(C(=O)Nc2cccc(C(=O)N/N=C/c3ccc(OC)cc3OC)c2)cc1 next
### Response -1.59

### Prompt Query COC(=O)c1cccc(NC(=O)NC(=O)c2ccc(Cl)cc2)c1 next
### Response -6.08

### Prompt Query C(=N\Nc1ccc2ccccc2n1)/c1ccc2c(c1)OCCO2 next
### Response -22.2

### Prompt Query O=C(O)c1cccc(N/N=C/c2cccs2)c1 next
### Response -8.12

---

Experiment: A673 Ewing sarcoma viability loss – cell-based, CellTiter-Glo luminescence, cherry-pick retest, confirmation (AID 720587)
Conditions: A673 Ewing sarcoma viability, CellTiter-Glo ATP luminescence, 72 h; at 26 µM (top of the series)
Measured activity change, negative = cytotoxicity values are reported for all entries that follow.
// return numeric value only (unit: %, not printed)

Known activity change, negative = cytotoxicity results, listed for orientation:
{"QUERY_SMILES": "COc1ccc(C=NNc2nc3ccccc3s2)cc1", "UNIT_INFO": "%", "activity change, negative = cytotoxicity": 3.07}
{"QUERY_SMILES": "COc1ccc(/C=C2\\SC(=S)N(CCCC(=O)NC3CCCC3)C2=O)cc1OC", "UNIT_INFO": "%", "activity change, negative = cytotoxicity": -18.4}
{"QUERY_SMILES": "CCN1CCN(/C=N/c2nc3c(s2)CCCC3)CC1", "UNIT_INFO": "%", "activity change, negative = cytotoxicity": -1.1}
{"QUERY_SMILES": "CC(=O)Nc1cc(C(=O)NCc2ccco2)ccc1Sc1ccc(F)cc1", "UNIT_INFO": "%", "activity change, negative = cytotoxicity": 8.55}
{"QUERY_SMILES": "Cc1cc(-c2nc3ccccc3s2)ccc1N", "UNIT_INFO": "%", "activity change, negative = cytotoxicity": -21.8}

# context switch: different compound, same activity change, negative = cytotoxicity
### Prompt Requested field: activity change, negative = cytotoxicity. Item: COC(=O)c1cccc(NC(=O)NC(=O)c2ccccc2Cl)c1
### Response -9.77
